Test system: HepG2
Protocol Summary: Cytotoxicity against human HepG2 cells incubated for 96 hrs by MTT assay
Assay type: functional
GI50 values by entry
Write it as a number; the unit µM goes unstated.

Check out these entries, answers already filled in.
COc1cc([C@H]2Oc3cc([C@H]4Oc5cc(O)cc(O)c5C(=O)[C@@H]4O)ccc3O[C@@H]2CO)ccc1O : 285
COc1cc([C@H]2Oc3cc(-c4oc5cc(OC(C)=O)cc(OC(C)=O)c5c(=O)c4OC(=O)[C@]45CC[C@@H](C)[C@H](C)[C@H]4C4=CC[C@@H]6[C@@]7(C)C[C@@H](OC(C)=O)[C@H](OC(C)=O)[C@@](C)(COC(C)=O)[C@@H]7[C@H](O)C[C@@]6(C)[C@]4(C)CC5)ccc3O[C@@H]2COC(C)=O)ccc1OC(C)=O : 471

Q: Query (molecule): COc1cc([C@H]2Oc3cc([C@H]4Oc5cc(O)cc(O)c5C(=O)[C@@H]4OC(=O)CCCCCCCCCCNC(=O)[C@]45CC[C@@H](C)[C@H](C)[C@H]4C4=CC[C@@H]6[C@@]7(C)C[C@@H](OC(C)=O)[C@H](OC(C)=O)[C@@](C)(COC(C)=O)[C@@H]7[C@H](O)C[C@@]6(C)[C@]4(C)CC5)ccc3O[C@@H]2CO)ccc1O ; field requested: GI50
A: 383
